Target: recombinant alpha-glucosidase from Saccharomyces cerevisiae, which is a maltase (Saccharomyces cerevisiae)
Assay: biochemical
Conditions: Inhibitory activity on α-glucosidase (IC50) in mM, Table 1; enzyme 0.2 U/mL, p-NPG 2.5 mM, pH 6.8, 37° C.
Where a SMILES comes first, the peptide text is derived from it.
OBSERVATION TYPE: IC50 (mM)
Numbers only, in mM.

I'd like to know its IC50. The compound in question is CC(C)C[C@H](N)C(=O)N[C@@H](CCCCN)C(=O)N1CCC[C@H]1C(=O)O [LKP] (H-Leu-Lys-Pro-OH; N-terminus and C-terminus assumed)
7.11

----------
Target: recombinant alpha-glucosidase from Saccharomyces cerevisiae, which is a maltase (Saccharomyces cerevisiae, UniProt P53341)
Sequence (P53341 whole entry): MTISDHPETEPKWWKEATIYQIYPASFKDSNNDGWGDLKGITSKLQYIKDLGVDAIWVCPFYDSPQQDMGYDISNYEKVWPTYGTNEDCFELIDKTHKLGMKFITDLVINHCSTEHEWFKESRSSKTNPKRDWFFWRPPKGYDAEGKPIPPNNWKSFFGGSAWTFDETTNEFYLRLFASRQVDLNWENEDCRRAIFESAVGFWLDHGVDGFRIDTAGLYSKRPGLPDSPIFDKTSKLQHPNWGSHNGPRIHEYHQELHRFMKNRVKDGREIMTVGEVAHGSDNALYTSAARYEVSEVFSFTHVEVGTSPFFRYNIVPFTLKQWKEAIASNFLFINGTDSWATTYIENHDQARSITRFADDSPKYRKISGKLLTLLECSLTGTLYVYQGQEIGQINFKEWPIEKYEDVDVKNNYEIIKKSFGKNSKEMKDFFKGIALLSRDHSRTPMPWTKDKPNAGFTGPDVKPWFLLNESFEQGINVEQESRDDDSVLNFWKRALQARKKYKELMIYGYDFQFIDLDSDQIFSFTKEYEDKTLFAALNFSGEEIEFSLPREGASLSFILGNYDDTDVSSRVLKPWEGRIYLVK
Test: biochemical
Conditions: IC50 on α-glucosidase
Where a SMILES comes first, the peptide text is derived from it.
OBSERVATION TYPE: IC50 (µM)
Give bare numbers, in µM.

Which IC50 is reported for this molecule? C[C@H](N)C(=O)N1CCC[C@H]1C(=O)O [AP] (H-Ala-Pro-OH; N-terminus and C-terminus assumed)
13.6

----------
Target: recombinant alpha-glucosidase from S. cerevisiae (maltase) (Saccharomyces cerevisiae, UniProt P53341)
Construct: purchased Sigma G0660-750UN
Sequence (P53341 whole entry): as above
Assay: biochemical
Type: biochemical
Conditions: Inhibitory activity on α-glucosidase (IC50) in mg/ml, Table 2
Where a SMILES comes first, the peptide text is derived from it.
Kindly supply the reported pIC50 values for the records listed here.
Numbers only, as −log10 of the molar value.

- CC(C)[C@H](N)C(=O)N[C@@H](C)C(=O)N1CCC[C@H]1C(=O)NCC(=O)O [VAPG] (H-VAPG-OH; N-terminus and C-terminus assumed): 2.39
- CC(C)C[C@H](N)C(=O)N[C@@H](CCCCN)C(=O)N1CCC[C@H]1C(=O)O [LKP] (H-Leu-Lys-Pro-OH; N-terminus and C-terminus assumed): 2.15
- C[C@H](N)C(=O)N1CCC[C@H]1C(=O)O [AP] (H-Ala-Pro-OH; N-terminus and C-terminus assumed): 4.87

Consider now this further molecule.
Record request: pIC50 value, item OCCN1C[C@H](O)[C@@H](O)[C@H](O)[C@H]1CO [Miglitol, miglitol, reference compound]
1.43

----------
Biological target: recombinant alpha-glucosidase from S. cerevisiae (maltase) (Saccharomyces cerevisiae)
Construct: purchased Sigma G0660-750UN
Assay: biochemical
Format: biochemical
Settings: Inhibitory activity on α-glucosidase (IC50) in mmol/l, Table 2; enzyme 1.6 U/ml, p-NPG 20 mM, pH 6.8, 37° C.
Method: 20 μl of α-glucosidase in 0.1M potassium phosphate buffer (pH 6.8) at 1.6 U/ml is mixed with 8 μl of the peptide sample or of the reference inhibitor at different concentrations. The samples are solubilized beforehand in milliQ water containing 10% DMSO (available from Sigma under reference 472301). […] The quantity of product formed (p-nitrophenyl) is measured by reading the absorbance at 410 nm using the Fluostar Omega spectrophotometer (BMG Labtech, Germany). […]
Where no end group is shown, it is not given here.
Provide the reported IC50 of each item.
Numbers only, in mM.

Required: IC50, one value per substance below.
1. SAPLRVY [SAPLRVY]
2. VGVAPG [VGVAPG]

1: 1.76; 2: 4.59

----------
Biological target: DPP-IV from pig kidney (Sus scrofa)
Construct: The enzyme used is DPP-IV from pig kidney; purchased Sigma D7052; host or cells: pig kidney
Test: In-vitro determination of the inhibition of DPP-IV by synthetic peptides (Example 14)
Assay type: biochemical
Settings: Table 13; substrate Gly-L-Pro-p-nitroanilide, pH 8.0, 37° C.; read-out: inhibitory activity of DPP-IV (IC50)
Where no end group is shown, it is not given here.
For each of the substances below, state its pIC50.
Numbers only, as −log10 of the molar value.

• VGVAPG [VGVAPG] = 1.97
• AVPYQR [AVPYQR] = 2.24
• VAPFPEV [VAPFPEV] = 2.93

With those in mind, consider the next substance.
Which pIC50 is reported with DPP-IV from pig kidney (Sus scrofa) for this entry: SAPLRVY [SAPLRVY] ?
2.98

----------
Consider the following molecules; for each one, report its IC50.
Target: DPP-IV from pig kidney (Sus scrofa, UniProt P22411)
Construct: The enzyme used is DPP-IV from pig kidney; purchased Sigma D7052; host or cells: pig kidney
Sequence (P22411 whole entry): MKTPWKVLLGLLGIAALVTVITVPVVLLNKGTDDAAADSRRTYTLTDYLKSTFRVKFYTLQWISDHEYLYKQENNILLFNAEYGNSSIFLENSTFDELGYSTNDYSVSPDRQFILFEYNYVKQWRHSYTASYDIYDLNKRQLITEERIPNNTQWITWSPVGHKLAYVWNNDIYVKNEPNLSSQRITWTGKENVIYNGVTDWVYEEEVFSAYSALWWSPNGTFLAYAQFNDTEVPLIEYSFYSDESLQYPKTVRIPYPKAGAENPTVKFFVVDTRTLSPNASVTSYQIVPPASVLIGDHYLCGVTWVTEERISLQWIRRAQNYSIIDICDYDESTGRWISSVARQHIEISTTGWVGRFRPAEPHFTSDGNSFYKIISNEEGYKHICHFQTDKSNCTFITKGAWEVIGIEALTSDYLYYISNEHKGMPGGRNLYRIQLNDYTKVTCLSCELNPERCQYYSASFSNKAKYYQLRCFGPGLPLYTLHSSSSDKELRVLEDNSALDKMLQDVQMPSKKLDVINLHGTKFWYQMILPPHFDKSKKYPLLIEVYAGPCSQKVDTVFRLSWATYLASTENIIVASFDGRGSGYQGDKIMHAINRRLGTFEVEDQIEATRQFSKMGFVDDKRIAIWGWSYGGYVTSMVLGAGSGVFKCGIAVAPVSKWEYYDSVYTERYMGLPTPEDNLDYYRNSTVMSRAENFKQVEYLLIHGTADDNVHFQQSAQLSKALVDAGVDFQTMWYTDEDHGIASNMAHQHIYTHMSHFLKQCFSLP
Experiment: In-vitro determination of the inhibition of DPP-IV by synthetic peptides (Example 14)
Assay type: biochemical
Settings: Table 13; substrate Gly-L-Pro-p-nitroanilide, pH 8.0, 37° C.; read-out: inhibitory activity of DPP-IV (IC50)
Where a SMILES comes first, the peptide text is derived from it.
Give bare numbers, in mM.

- CC(C)[C@H](N)C(=O)N[C@@H](C)C(=O)N1CCC[C@H]1C(=O)O [VAP] (H-Val-Ala-Pro-OH; N-terminus and C-terminus assumed): 4.82
- C[C@H](N)C(=O)N1CCC[C@H]1C(=O)O [AP] (H-Ala-Pro-OH; N-terminus and C-terminus assumed): 4.78
- CC(C)[C@H](N)C(=O)N[C@@H](C)C(=O)N1CCC[C@H]1C(=O)NCC(=O)O [VAPG] (H-VAPG-OH; N-terminus and C-terminus assumed): 2.27

Now turn to the next molecule.
Need IC50, item CC(C)C[C@H](NC(=O)[C@@H]1CCCN1C(=O)CN)C(=O)O [GPL] (H-Gly-Pro-Leu-OH; N-terminus and C-terminus assumed)
1.85

----------
I'd be grateful if you could share measured IC50 for these entries.
Target: recombinant alpha-glucosidase from S. cerevisiae (maltase) (Saccharomyces cerevisiae)
Construct: purchased Sigma G0660-750UN
Test: biochemical
Assay type: biochemical
Details: Table 2; read-out: Inhibitory activity on α-glucosidase (IC50) in mg/ml (converted)
Where a SMILES comes first, the peptide text is derived from it.
Don't forget the unit after the value.

Observe how each entry below is paired with its result.
- CC[C@H](C)[C@H](N)C(=O)N[C@@H](Cc1ccc(O)cc1)C(=O)O [IY] (H-Ile-Tyr-OH; N-terminus and C-terminus assumed): 12.2 mM
- CC(C)[C@H](N)C(=O)N[C@@H](Cc1ccc(O)cc1)C(=O)O [VY] (H-Val-Tyr-OH; N-terminus and C-terminus assumed): 2.7 mM
- CC(C)C[C@H](NC(=O)[C@@H]1CCCN1C(=O)CN)C(=O)O [GPL] (H-Gly-Pro-Leu-OH; N-terminus and C-terminus assumed): 4.81 mM

Give one value of IC50 per listed compound.
1. NCCCC[C@H](N)C(=O)N[C@@H](Cc1c[nH]c2ccccc12)C(=O)O [KW] (H-Lys-Trp-OH; N-terminus and C-terminus assumed)
2. CC(C)[C@H](N)C(=O)N[C@@H](C)C(=O)N1CCC[C@H]1C(=O)O [VAP] (H-Val-Ala-Pro-OH; N-terminus and C-terminus assumed)
3. NCCCC[C@H](N)C(=O)N[C@@H](Cc1ccc(O)cc1)C(=O)O

1: 12.7 mM; 2: 0.02 mM; 3: 10.9 mM

----------
Biological target: recombinant alpha-glucosidase from S. cerevisiae (maltase) (Saccharomyces cerevisiae, UniProt P53341)
Construct: purchased Sigma G0660-750UN
Assay: biochemical
Assay type: biochemical
Conditions: Inhibitory activity on α-glucosidase (IC50) in mg/ml, Table 2
Where no end group is shown, it is not given here.
Please respond with reported IC50 for every item in the list.
Reply with the number, then its unit.

Consider the reported IC50 for these substances:
- VAPFPEV [VAPFPEV]: 2.68 mM
- VGVAPG [VGVAPG]: 4.58 mM
- SAPLRVY [SAPLRVY]: 1.76 mM

Alright, here's another substance for you.
Request the reported IC50 associated with AVPYQR [AVPYQR]
3.19 mM

----------
Target: recombinant alpha-glucosidase from Saccharomyces cerevisiae, which is a maltase (Saccharomyces cerevisiae, UniProt P53341)
Experiment: biochemical
Settings: Table 1; enzyme 0.2 U/mL, p-NPG 2.5 mM, pH 6.8, 37° C.; read-out: Inhibitory activity on α-glucosidase (IC50)
Where a SMILES comes first, the peptide text is derived from it.
I'd be grateful if you could share measured pIC50 for these entries.
Numbers only, as −log10 of the molar value.

Check out these entries, answers already filled in.
• CC[C@H](C)[C@H](N)C(=O)N[C@@H](Cc1ccc(O)cc1)C(=O)O [IY] (H-Ile-Tyr-OH; N-terminus and C-terminus assumed) = 1.91
• NCCCC[C@H](N)C(=O)N[C@@H](Cc1c[nH]c2ccccc12)C(=O)O [KW] (H-Lys-Trp-OH; N-terminus and C-terminus assumed) = 1.89

Please go through the list and note pIC50 for each compound.
1. NCCCC[C@H](N)C(=O)N[C@@H](Cc1ccc(O)cc1)C(=O)O
2. OCCN1C[C@H](O)[C@@H](O)[C@H](O)[C@H]1CO [Miglitol, miglitol, reference compound]
3. CC(C)C[C@H](NC(=O)[C@@H]1CCCN1C(=O)CN)C(=O)O [GPL] (H-Gly-Pro-Leu-OH; N-terminus and C-terminus assumed)

[1.96, 1.41, 2.32]
